assayedSystem: T1, soluble human CD3 epsilon chain (human, UniProt P07766 23-126)
T1 construct: also called CD3ε
T1 sequence (P07766 23-126 limits assumed): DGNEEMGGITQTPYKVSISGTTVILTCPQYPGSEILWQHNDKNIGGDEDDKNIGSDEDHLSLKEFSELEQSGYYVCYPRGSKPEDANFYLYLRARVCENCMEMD
assayDetails: SPR
I'd appreciate it if you could supply log10 of Kd values for the items below.
All values: base-10 log of Kd in nM.

Example results:
| binder | property | testValue |
| --- | --- | --- |
| hCE115HAa-E22Hh/none-Hi-Kn010G3/L0000-k0 (antibody, V domains shown, one-arm) VH: QVQLVESGGGVVQPGGSLRLSCAASGFTFSNAWMHWVRQAPGKGLEWVAQIKAKSNNYATYYAESVKGRFTISRDDSKNSLYLQMNSLKTEDTAVYYCRYVHYGAYYGVDAWGQGTTVTVSS VL: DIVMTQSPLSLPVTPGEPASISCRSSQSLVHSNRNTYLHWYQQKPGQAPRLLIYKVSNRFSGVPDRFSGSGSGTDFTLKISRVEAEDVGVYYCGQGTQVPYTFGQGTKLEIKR | log10 of Kd | 2.03 |
| TR01H099-E2702GsKsc/none-Hi-E2704sE/L0011-k0 (antibody, V domains shown, one-arm) VH: QVQLVESGGGLVQPGRSLRLSCAASGFTFSNAWMHWVRQAPGKGLEWVAQIKDKSQNYAQYYAESVKGRFTISRDDSKNSLYLQMNSLKTEDTAVYYCRYVHYAAGYGVDAWGQGTTVTVSS VL: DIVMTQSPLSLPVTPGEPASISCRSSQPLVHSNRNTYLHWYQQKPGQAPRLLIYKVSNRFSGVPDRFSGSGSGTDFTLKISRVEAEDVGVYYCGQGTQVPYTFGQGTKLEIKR | log10 of Kd | 1.16 |
| TR01H082-E22Hh/none-Hi-Kn010G3/L0264-k0 (antibody, V domains shown, one-arm) VH: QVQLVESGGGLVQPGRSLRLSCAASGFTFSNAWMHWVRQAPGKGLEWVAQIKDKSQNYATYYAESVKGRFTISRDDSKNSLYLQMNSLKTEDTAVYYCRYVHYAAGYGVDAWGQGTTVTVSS VL: DIVMTQSPLSLPVTPGEPASISCRPSQSPVHSNRNTYLHWYQQKPGQAPRLLIYKVSNRFSGVPDRFSGSGSGTDFTLKISRVEAEDVGVYYCAQGTQVPYTFGQGTKLEIK | log10 of Kd | 1.54 |
| TR01H040-E22Hh/none-Hi-Kn010G3/TR01L007-k0 (antibody, V domains shown, one-arm) VH: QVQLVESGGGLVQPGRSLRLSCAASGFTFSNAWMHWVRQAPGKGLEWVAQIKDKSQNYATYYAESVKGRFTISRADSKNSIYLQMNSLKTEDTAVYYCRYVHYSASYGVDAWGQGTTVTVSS VL: DIVMTQSPLSLPVTPGEPASISCQASESLVHSNRNTYLHWYLQKPGQSPQLLIYKVSNRFSGVPDRFSGSGSGTDFTLKISRVEAEDVGVYYCGQGTQVPYTFGQGTKLEIK | log10 of Kd | 1.83 |

Lab note: next binder to report on.
Challenge: What does the record list as log10 of Kd for TR01H083-E22Hh/none-Hi-Kn010G3/L0000-k0 (antibody, V domains shown, one-arm) VH: QVQLVESGGGLVQPGRSLRLSCAASGFTFSNAWMHWVRQAPGKGLEWVAQIKDKSNNYATYYAESVKGRFTISRADSKNSIYLQMNSLKTEDTAVYYCRYVHYAAGYGVDIWGQGTTVTVSS VL: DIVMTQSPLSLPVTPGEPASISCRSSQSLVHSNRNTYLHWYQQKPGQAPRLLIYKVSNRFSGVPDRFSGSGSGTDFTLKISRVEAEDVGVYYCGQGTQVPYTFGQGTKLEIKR ?
Response given: 0.83
